# inhibition listing for each entry below
molecular target: Sulfonylurea receptor 1, Kir6.2 (Homo sapiens) (UniProt Q14654+Q09428); assay: Antiarrhythmic effect in hSUR1/hKir6.2 (pancreatic KATP channel) transfected in CHO cells at a dose of 10 uM; type: functional, cell-based; settings: at 10 µM

// known answers, use as guide
smiles str	inhibition
CN/C(S)=N/S(=O)(=O)c1cc(CCNC(=O)c2cc(Cl)ccc2OC)cc(OC)c1OC	-2.34%
CN/C(S)=N/S(=O)(=O)c1cc(CCNC(=O)c2cc(Cl)ccc2OC)ccc1C	74.8%
CN/C(S)=N/S(=O)(=O)c1cc(CCNC(=O)c2cc(Cl)ccc2OC)ccc1-c1ccccn1	91.4%
CN/C(S)=N/S(=O)(=O)c1cc(CCNC(=O)c2cc(Cl)ccc2OC)ccc1-c1ccccc1	67.7%

Now consider a different compound.
Q: What inhibition value was documented for this compound, "CCc1ccc(CCNC(=O)c2cc(Cl)ccc2OC)cc1S(=O)(=O)/N=C(\S)NC" ?
Result: 92.9%
